Could you please report measured EC50 for the items listed next?
# Test system: HBV
# Assay explanation: Anti-viral assay in HepG2.2.15 cells: HBV inhibitory activity (HBV DNA in culture medium by q-PCR)
# Type: cell-based
# Conditions used: Hepatitis B virus, HepG2.2.15, 144 h, HepG2.2.15 cells, 6 days treatment, HBV DNA in culture medium by q-PCR, highest concentration 10 uM; read-out: EC50
Kindly provide the numeric value in nM only, without the unit symbol.

Just so you know, measured EC50 for CCOC(=O)C1=C(C2CCN(c3cccc(C(=O)O)n3)CC2)NC(c2nccs2)=NC1c1ccc(F)c(F)c1Cl (single isomer, unassigned) came out at 61

// EC50 value for CCOC(=O)C1=C(C2CCN(c3nc(C(=O)O)c(C)o3)CC2)NC(c2nccs2)=NC1c1ccc(F)c(F)c1Cl (single isomer, unassigned) : 16

// COC(=O)C1=C(C2CCN(c3ncc(C)c(C(=O)O)n3)CC2)NC(c2nccs2)=NC1c1ccc(F)c(F)c1Cl (single isomer, unassigned) : EC50 value = 5.5

Recorded EC50 (molecule COC(=O)C1=C([C@H]2CC[C@H](c3nc(C(=O)O)co3)CC2)NC(c2ncc(F)cc2F)=NC1c1ccc(F)c(F)c1Cl (single isomer, unassigned) ): 24

----------
# Test system: HBV
# Assay explanation: Anti-viral assay in HepG2.2.15 cells: HBV inhibitory activity (HBV DNA in culture medium by q-PCR)
# Format: cell-based
# Conditions used: Hepatitis B virus, HepG2.2.15, 144 h, HepG2.2.15 cells, 6 days treatment, HBV DNA in culture medium by q-PCR, highest concentration 10 uM; read-out: EC50
Reported endpoint: EC50 (nM)
Your answer should be a plain number; it is taken to be in nM.

Record summary for CCOC(=O)C1=C(C2CCN(c3cc(C(=O)O)c(C(F)(F)F)cn3)CC2)NC(c2nccs2)=NC1c1ccc(F)c(F)c1Cl (single isomer, unassigned) [II-39-B] : reported EC50 = 14

EC50 in this record for CCOC(=O)C1=C([C@H]2CC[C@H](c3nc(C(=O)O)cs3)CC2)NC(c2nccs2)=NC1c1ccc(F)c(F)c1Cl (single isomer, unassigned) [Compound I-41-B] : 17

EC50 for CCOC(=O)C1=C(C2CCN(c3ncc(CC)c(C(=O)O)n3)CC2)NC(c2nccs2)=NC1c1ccc(F)c(F)c1Cl (single isomer, unassigned) [II-60-B] is 5.9

// recorded EC50 for CCOC(=O)C1=C([C@H]2CC[C@H](c3cn(CCC(=O)O)nc3C)CC2)NC(c2nccs2)=NC1c1ccc(F)c(F)c1Cl (single isomer, unassigned) [Compound I-33-C] : 7.2

The measured EC50 associated with CCOC(=O)C1=C(C2CCN(c3ncc(C)c(C(=O)O)n3)CC2)NC(c2nccs2)=NC1c1ccc(F)cc1Cl (single isomer, unassigned) [II-20-B] reads 15

# EC50 (compound: COC(=O)C1=C(C2CCN(c3ncc(C)c(C(=O)O)n3)CC2)NC(c2nccs2)=NC1c1ccc(F)cc1C (single isomer, unassigned) [II-7-B] ) is 41

----------
# Assay explanation: Cytotoxicity determination in HepG2.2.15 cells (CCK-8)
# Assay type: cell-based
# Conditions used: human, 6 days treatment, CCK-8, highest concentration 100 uM
Threshold-based label: CC50 at 6 days under 10 µM gives 1 (yes), CC50 at 6 days not under 10 µM gives 0 (no).

Hello, is CC50 at 6 days of the following compound strictly smaller than 10 µM? COC(=O)C1=C([C@H]2CC[C@H](c3nc(CC(=O)O)co3)CC2)NC(c2nccs2)=NC1c1cccc(F)c1Br (single isomer, unassigned)
0 (no)

Does COC(=O)C1=C([C@H]2CC[C@H](c3nc(CC(=O)O)c(C)o3)CC2)NC(c2nccs2)=NC1c1ccc(F)cc1Cl (single isomer, unassigned) have CC50 at 6 days strictly under 10 µM?
0 (no)

Strictly below 10 µM in CC50 at 6 days? COC(=O)C1=C(C2CCN(c3ncc(C)c(C(=O)O)n3)CC2)NC(c2nccs2)=NC1c1ccc(Br)cc1Cl (single isomer, unassigned)
0 (no)

Dear colleague, could you confirm whether CC50 at 6 days of CCOC(=O)C1=C([C@H]2CC[C@H](c3nc(C(=O)O)no3)CC2)NC(c2nccs2)=NC1c1ccc(F)c(F)c1Cl (stereo partly shown) falls below 10 µM? Thanks.
0 (no)

Criterion: CC50 at 6 days strictly below 10 µM. Is it met by CCOC(=O)C1=C(C2CCN(c3ncc(CC(=O)O)cn3)CC2)NC(c2nccs2)=NC1c1ccc(F)c(F)c1Cl (single isomer, unassigned) ?
1 (yes)

Identify whether the compound CCOC(=O)C1=C(C2CCN(c3ncc(C(=O)O)o3)CC2)NC(c2nccs2)=NC1c1ccc(F)c(F)c1Cl (single isomer, unassigned) records CC50 at 6 days below 10 µM.
0 (no)

Bench note: check whether COC(=O)C1=C([C@H]2CC[C@H](c3nc(CC(=O)O)co3)CC2)NC(c2nccs2)=NC1c1ccc(F)c(F)c1Cl (single isomer, unassigned) shows CC50 at 6 days below 10 µM
0 (no)

# TODO verify CC50 at 6 days < 10 µM strictly for this compound: CCOC(=O)C1=C(C2CCN(c3nc(C(F)(F)F)c(C(=O)O)s3)CC2)NC(c2nccs2)=NC1c1ccc(F)c(F)c1Cl (single isomer, unassigned)
1 (yes)

Given the entry CCOC(=O)C1=C(C2CCN(c3cc(C(=O)O)cc(C(F)(F)F)n3)CC2)NC(c2nccs2)=NC1c1ccc(F)c(F)c1Cl (single isomer, unassigned) , would its reported CC50 at 6 days be below 10 µM?
1 (yes)

I'd appreciate it if you could check whether COC(=O)C1=C(C2CCN(c3ncc(C)c(C(=O)O)n3)CC2)NC(c2nccs2)=NC1c1ccc(F)c(F)c1Cl (single isomer, unassigned) has CC50 at 6 days smaller than 10 µM.
0 (no)

Please state whether CC50 at 6 days is below 10 µM for COC(=O)C1=C(C2CCN(c3ncc(Cl)c(C(=O)O)n3)CC2)NC(c2nccs2)=NC1c1ccc(F)c(F)c1Cl (single isomer, unassigned)
0 (no)

Decide: CC50 at 6 days of COC(=O)C1=C(C2CCN(c3ncc(C(=O)O)s3)CC2)NC(c2nccs2)=NC1c1ccc(F)c(F)c1Cl (single isomer, unassigned) strictly below 10 µM?
0 (no)

For this compound, is CC50 at 6 days lower than 10 µM? CCOC(=O)C1=C(C2CCN(c3ncc(CCC(=O)O)cn3)CC2)NC(c2nccs2)=NC1c1ccc(F)c(F)c1Cl (single isomer, unassigned)
0 (no)

Could you please tell me whether CC50 at 6 days recorded for CCOC(=O)C1=C(C2CCN(c3cc(O)c(C(=O)O)cn3)CC2)NC(c2nccs2)=NC1c1ccc(F)c(F)c1Cl (single isomer, unassigned) is less than 10 µM?
1 (yes)

In plain terms, does COC(=O)C1=C([C@H]2CC[C@H](c3ncc(C4(C(=O)O)CC4)cn3)CC2)NC(c2nccs2)=NC1c1ccc(F)c(F)c1Cl (single isomer, unassigned) come in under 10 µM for CC50 at 6 days?
0 (no)

Is CC50 at 6 days strictly under 10 µM for the entry COC(=O)C1=C([C@H]2CC[C@H](c3nc(C(=O)O)co3)CC2)NC(c2nccs2)=NC1c1ccc(F)cc1Cl (single isomer, unassigned) ?
0 (no)

Is the reported CC50 at 6 days for CCOC(=O)C1=C(C2CCN(c3ncc(CC(=O)O)cn3)CC2)NC(c2nccs2)=NC1c1cccc(F)c1Cl (single isomer, unassigned) strictly below 10 µM?
1 (yes)

Regarding CCOC(=O)C1=C([C@H]2CC[C@H](c3nc(CCC(=O)O)co3)CC2)NC(c2nccs2)=NC1c1ccc(F)c(F)c1Cl (single isomer, unassigned) [Compound I-24-A] , kindly confirm whether its CC50 at 6 days is beneath 10 µM.
1 (yes)

Field: below-cutoff. Rule: recorded CC50 at 6 days strictly less than 10 µM. Subject: CCOC(=O)C1=C(C2CCN(c3ncc(C)c(C(=O)O)n3)CC2)NC(c2nccs2)=NC1c1ccc(F)cc1C (single isomer, unassigned)
0 (no)

Below 10 µM on CC50 at 6 days? Entry CCOC(=O)C1=C(C2CCN(c3ncc(C(=O)O)cc3F)CC2)NC(c2nccs2)=NC1c1ccc(F)c(F)c1Cl (single isomer, unassigned)
1 (yes)

Please state whether CC50 at 6 days is below 10 µM for COC(=O)C1=C(C2CCN(c3nc(C(=O)O)cs3)CC2)NC(c2nccs2)=NC1c1ccc(F)c(F)c1Cl (single isomer, unassigned)
0 (no)

Please state whether CC50 at 6 days is below 10 µM for CCOC(=O)C1=C([C@H]2CC[C@H](c3nc(CCC(=O)O)co3)CC2)NC(c2nccs2)=NC1c1ccc(F)c(F)c1Cl (relative stereo) [Compound I-24]
1 (yes)
